Reported pKi against Muscarinic acetylcholine receptor M1 (Homo sapiens), gathered from multiple publications, appears below.
Sequence (P11229 whole entry): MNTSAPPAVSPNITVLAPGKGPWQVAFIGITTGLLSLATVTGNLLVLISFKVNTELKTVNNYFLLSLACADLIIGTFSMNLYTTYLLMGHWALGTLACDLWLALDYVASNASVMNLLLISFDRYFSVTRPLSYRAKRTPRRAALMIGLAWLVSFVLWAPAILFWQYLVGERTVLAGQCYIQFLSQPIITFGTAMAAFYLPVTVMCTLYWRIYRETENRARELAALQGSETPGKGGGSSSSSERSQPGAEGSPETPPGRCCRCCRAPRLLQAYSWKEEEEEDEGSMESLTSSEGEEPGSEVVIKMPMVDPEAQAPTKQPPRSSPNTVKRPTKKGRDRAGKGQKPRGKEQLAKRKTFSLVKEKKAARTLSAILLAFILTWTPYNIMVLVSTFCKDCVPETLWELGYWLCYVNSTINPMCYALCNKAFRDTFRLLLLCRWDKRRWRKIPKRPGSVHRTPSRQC
pKi: −log10 of the molar value.
readout: pKi

The examples below pair each entry with its known result.
Lookup: Entry CC(C1=C(CCN(C)C(C)C)Cc2ccccc21)c1ccccn1 (stereo not given) , system Muscarinic acetylcholine receptor M1 (Homo sapiens): what pKi was measured?
Found: 6.06

Lookup: Lookup O=C(CCCCCNC(=O)CCC1=[N+]2C(=Cc3ccc(-c4cccs4)n3[B-]2(F)F)C=C1)NCCCCCC(=O)NCCCCN1CCN(CC(=O)N2c3ccccc3C(=O)Nc3cccnc32)CC1
Found: 7.26

Lookup: Lookup CCN(CCCCC1CCN(CC(=O)N2c3ccccc3NC(=O)c3ccccc32)CC1)C(=O)c1ccc(F)cc1
Found: 7.23

Lookup: Lookup C=C(c1ccc(S(=O)(=O)c2ccc(OC)cc2)cc1)C1CCN(C2CCN(S(=O)(=O)CCCC)CC2)CC1
Found: 7.24

Lookup: Lookup C[N+]1(CCCC(O)(c2ccccc2)c2ccccc2)CCC(C2CC[N+](C)(CCCC(O)(c3ccccc3)c3ccccc3)CC2)CC1 (stereo not given)
Found: 6.22

1. O=C(CCN1CCCc2ccccc21)N1CCCCC1CO (stereo not given)
2. C[N+]1(C)CCN(CCCC(O)(c2ccccc2)c2ccccc2)CC1
Lookup: Hi, I'm comparing 1 with 2 and wondering which one has the bigger number for pKi. Any idea? Give the chosen item's label as your response.
Found: 2

I. CC(C)(C)OC(=O)N1CCN(CC(=O)n2c3ccccc3c3ccccc32)CC1
II. c1coc(C2CCCN2)c1 (racemic)
Lookup: Please compare: I and II . Report which one has the smaller pKi value. Give the chosen item's label as your response.
Found: II
(II: 3.75, I: 4.89)

P. COc1ccccc1N1CCN(CCCNC(=O)NN(Cc2ccc(F)cc2)c2ccccc2)CC1
Q. O=C(NC[C@@H]1CCCNC1)[C@H]1CCCN1C(=O)[C@@H]1C[C@@H](O)CN1C(=O)CC(c1ccc(Cl)cc1)(c1ccc(Cl)cc1)c1ccc(Cl)cc1
R. OC(CCCN1CCC(C2CCN(CCCC(O)(c3ccccc3)c3ccccc3)CC2)CC1)(c1ccccc1)c1ccccc1
S. NCCN1CCN(CC(=O)NC2CCN(CC(=O)N3c4ccccc4NC(=O)c4ccccc43)CC2)CC1
T. CN1CCN(CCCC(O)(c2ccccc2)c2ccccc2)CC1
Lookup: # ascending order, key=pKi Answer by listing the labels in the order asked for.
Found: S, P, T, R, Q
(S: 4.32, P: 4.82, T: 5.11, R: 6.10, Q: 6.34)

I. Cc1ccc2c(c1)CCCN2CC(=O)N1CCCCC1
II. COc1ccc(S(=O)(=O)c2ccc(C(C)N3CCN(C4CCCCC4)CC3)cc2)cc1 (stereo not given)
III. O=C(CCN1CCCc2ccccc21)Nc1cccc2cccnc12
IV. COc1nsnc1OCCCOCCCOCCCOc1nsnc1C1=CCCN(C)C1
V. NCCN1CCN(CCCC2CCN(CC(=O)N3c4ccccc4NC(=O)c4ccccc43)CC2)CC1
Lookup: # ascending order, key=pKi Answer by listing the labels in the order asked for.
Found: I, III, IV, V, II
(I: 4.75, III: 5.31, IV: 7.00, V: 7.35, II: 8.22)

1. CC(=O)OCCCCCCCCCCCCOc1nsnc1C1=CCCN(C)C1
2. C[N+]1(C)CCC[C@@H]1[C@@H]1C[S+]([O-])[C@@](c2ccccc2)(C2CCCCC2)O1.[I-] (stereo in doubt; (+)-14)
3. COc1ccccc1CN1CCC(C2CCN(CCCCCCCCN3CCC(C4CCN(Cc5ccccc5OC)CC4)CC3)CC2)CC1
4. O=C(CCNC(=O)CC(c1ccccc1)(c1ccccc1)c1ccccc1)NCCC(=O)NC[C@H]1CCCN(CC2CCCCC2)C1
5. CCN1CCC(CNC(=O)[C@H]2CCCN2C(=O)[C@@H]2C[C@@H](O)CN2C(=O)CC(c2ccc(F)cc2)(c2ccc(F)cc2)c2ccc(F)cc2)CC1
Lookup: # ascending order, key=pKi Answer by listing the labels in the order asked for.
Found: 5, 4, 3, 2, 1
(5: 6.24, 4: 7.44, 3: 7.70, 2: 8.16, 1: 8.40)

1. O=C(NC[C@H]1CCCN(CC2CCCCC2)C1)[C@H]1CCCN1C(=O)[C@@H]1CCCN1C(=O)CC(c1ccccc1)(c1ccccc1)c1ccccc1
2. O=C(CCN1CCCc2ccccc21)N1CCC(O)C1 (stereo not given)
Lookup: Please compare: 1 and 2 . Report which one has the smaller pKi value. Give the chosen item's label as your response.
Found: 2

A. C=C(c1ccc([S@+]([O-])c2ccc(OC)cc2)cc1)C1CCN(C2CCCCC2)CC1
B. C[C@@H]1OC(=O)[C@H]2C=C3CCCC[C@@H]3/C(=C/CC3CCC(C)(C)[N+]3(C)C)[C@@H]12 (stereo not given in full)
Lookup: Hi, I'm comparing A with B and wondering which one has the bigger number for pKi. Any idea? Give the chosen item's label as your response.
Found: A
(A: 8.67, B: 6.35)

A. C=C(c1ccc(S(=O)(=O)c2ccc(OC)cc2)cc1)C1CCN(C2CCN(C(=O)OCCCC)CC2)CC1
B. N=C(N)NCCC[C@@H](N)C(=O)NCCN1CCN(CCCCC2CCN(CC(=O)N3c4ccccc4NC(=O)c4ccccc43)CC2)CC1
C. CN1CCC(Oc2nc3ccccc3n2-c2ccccc2)CC1
Lookup: # ascending order, key=pKi Answer by listing the labels in the order asked for.
Found: C, A, B
(C: 7.70, A: 8.01, B: 9.16)
